Cited source for all entries: paper PMC5764481

Tested on: T. b. gambiense strain
METHOD: In vitro antitrypanosomal activities (LILIT, Alamar Blue)
Format: cell-based, Trypanosoma brucei gambiense
STATED_CONDITIONS: Trypanosoma brucei, GAMBIENSE, 72 h
Description: […]
MEASURED_QUANTITY: IC50 (nM)
Numeric answer only, unit nM assumed.

Give the reported IC50 for Nc1nc(N)nc(Nc2ccc([As]3SCC(CO)S3)cc2)n1 (stereo not shown) [melarsoprol] (system: T. b. gambiense strain).
5

====

METHOD: Determination of LD50 in mice
STATED_CONDITIONS: mouse, in vivo, ip; male mice, intraperitoneal, observed 72 h
MEASURED_QUANTITY: LD50 at 72 h (µmol/kg)
Numeric answer only, unit µmol/kg assumed.

Look up LD50 at 72 h: Nc1nc(N)nc(Nc2ccc([As]3SCC(CO)S3)cc2)n1 (stereo not shown)
7.21
